# EXPERIMENTAL TARGET: human integrin αVβ6 (Homo sapiens, UniProt P06756+P18564)
# Sequence (P06756 31-992 limits assumed): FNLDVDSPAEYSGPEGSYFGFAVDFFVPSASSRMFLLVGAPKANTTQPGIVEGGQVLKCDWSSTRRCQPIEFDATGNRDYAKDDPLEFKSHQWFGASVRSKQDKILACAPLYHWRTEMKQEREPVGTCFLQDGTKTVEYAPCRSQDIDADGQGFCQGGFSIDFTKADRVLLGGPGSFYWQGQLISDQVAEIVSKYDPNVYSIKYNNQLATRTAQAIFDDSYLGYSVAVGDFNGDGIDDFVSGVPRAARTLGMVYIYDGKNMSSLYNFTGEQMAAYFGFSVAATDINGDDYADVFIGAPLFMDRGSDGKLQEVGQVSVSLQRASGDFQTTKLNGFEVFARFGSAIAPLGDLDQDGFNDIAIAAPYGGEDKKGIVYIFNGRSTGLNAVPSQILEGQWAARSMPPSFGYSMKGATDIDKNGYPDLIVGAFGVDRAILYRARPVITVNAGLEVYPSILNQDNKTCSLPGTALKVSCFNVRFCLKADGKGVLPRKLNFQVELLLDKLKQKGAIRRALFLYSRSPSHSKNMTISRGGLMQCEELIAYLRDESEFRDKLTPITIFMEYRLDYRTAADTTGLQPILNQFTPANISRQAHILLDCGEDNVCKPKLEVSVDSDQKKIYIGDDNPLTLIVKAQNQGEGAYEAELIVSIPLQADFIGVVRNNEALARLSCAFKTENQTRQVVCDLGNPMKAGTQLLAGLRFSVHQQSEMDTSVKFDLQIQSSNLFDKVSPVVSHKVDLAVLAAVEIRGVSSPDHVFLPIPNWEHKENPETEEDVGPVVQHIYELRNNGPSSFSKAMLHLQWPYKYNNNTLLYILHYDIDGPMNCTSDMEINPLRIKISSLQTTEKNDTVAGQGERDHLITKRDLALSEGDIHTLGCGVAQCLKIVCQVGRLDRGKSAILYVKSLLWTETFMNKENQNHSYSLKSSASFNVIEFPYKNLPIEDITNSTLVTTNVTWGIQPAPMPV
# Sequence (P18564 22-707 limits assumed): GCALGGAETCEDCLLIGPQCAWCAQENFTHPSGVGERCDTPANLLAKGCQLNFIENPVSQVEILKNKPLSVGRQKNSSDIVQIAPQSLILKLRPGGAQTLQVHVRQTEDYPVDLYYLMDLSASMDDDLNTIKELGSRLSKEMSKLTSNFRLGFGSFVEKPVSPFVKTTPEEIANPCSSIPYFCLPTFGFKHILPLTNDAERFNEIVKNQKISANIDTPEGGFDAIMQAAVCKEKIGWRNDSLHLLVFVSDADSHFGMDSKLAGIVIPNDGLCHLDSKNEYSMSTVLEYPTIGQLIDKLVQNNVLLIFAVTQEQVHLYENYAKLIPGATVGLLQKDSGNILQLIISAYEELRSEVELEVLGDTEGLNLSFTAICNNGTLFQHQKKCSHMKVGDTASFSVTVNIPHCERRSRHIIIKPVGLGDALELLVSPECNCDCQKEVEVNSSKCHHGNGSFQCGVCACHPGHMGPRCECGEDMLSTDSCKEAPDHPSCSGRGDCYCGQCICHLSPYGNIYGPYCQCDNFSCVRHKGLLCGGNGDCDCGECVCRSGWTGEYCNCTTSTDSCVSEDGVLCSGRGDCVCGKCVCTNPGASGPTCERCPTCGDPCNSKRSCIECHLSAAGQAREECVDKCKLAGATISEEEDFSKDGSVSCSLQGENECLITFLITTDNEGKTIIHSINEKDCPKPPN
# MEASUREMENT NOTES: AlphaScreen proximity-based integrin binding assay with TGF-b1 LAP
# CONDITION CONTEXT: values given as ranges
pIC50: −log10 of the molar value.
TEST READOUT: pIC50

Sample answers from the record:
COMPOUND: COc1ccc(Cl)c(C2(C(=O)N[C@@H](CCOCCCCc3ccc4c(n3)NCCC4)C(=O)O)CC2)n1 [Compound 26]
pIC50: 6.30 to 6.60

COMPOUND: O=C(O)[C@H](CCOCCCCc1ccc2c(n1)NCCC2)NC(=O)C1(c2ccccc2)CC1 [Compound 10]
pIC50: ≤ 6.30

Given O=C(Cc1ccccc1)N[C@@H](CCOCCCCc1ccc2c(n1)NCCC2)C(=O)O [Compound 81] , state its recorded pIC50.
≤ 6.30

Data request, read-out pIC50, for Cn1ncc(Cl)c1C1(C(=O)N[C@@H](CCOCCCCc2ccc3c(n2)NCCC3)C(=O)O)CC1 [Compound 51]
≤ 6.30

* * *

# EXPERIMENTAL TARGET: human integrin αVβ6 (Homo sapiens, UniProt P06756+P18564)
# MEASUREMENT NOTES: AlphaScreen proximity-based integrin binding assay with TGF-b1 LAP
# CONDITION CONTEXT: values given as ranges
pIC50: −log10 of the molar value.
pIC50 listing for selected compounds.

COMPOUND: O=C(O)[C@H](CCOCCCCc1ccc2c(n1)NCCC2)NC(=O)C1(c2cc(F)cnc2F)CC1 [Compound 21]
EXPERIMENTAL TARGET: human integrin αVβ6 (Homo sapiens, UniProt P06756+P18564)
pIC50: 6.60 to 6.82

COMPOUND: O=C(O)[C@H](CCOCCCCc1ccc2c(n1)NCCC2)NC(=O)C1(c2cccc(F)c2)CCOCC1 [Compound 88]
EXPERIMENTAL TARGET: human integrin αVβ6 (Homo sapiens, UniProt P06756+P18564)
pIC50: < 6.30

COMPOUND: Cc1ncnc(Cl)c1C1(C(=O)N[C@@H](CCOCCCCc2ccc3c(n2)NCCC3)C(=O)O)CC1 [Compound 39]
EXPERIMENTAL TARGET: human integrin αVβ6 (Homo sapiens, UniProt P06756+P18564)
pIC50: ≤ 6.30

pIC50 for Cc1ccncc1C1(C(=O)N[C@@H](CCOCCCCc2ccc3c(n2)NCCC3)C(=O)O)CC1 [Compound 16] ?
≤ 6.30

Requested field: pIC50. Item: O=C(N[C@@H](CCOCCCCc1ccc2c(n1)NCCC2)C(=O)O)c1ccnn1-c1ccccc1 [Compound 99]
> 7.30

Would you mind telling me what pIC50 value was observed for COc1ncnc(Cl)c1C1(C(=O)N[C@@H](CCOCCCCc2ccc3c(n2)NCCC3)C(=O)O)CC1 [Compound 62] ?
≤ 6.30

# query: pIC50 of entry COc1cccc(C2(C(=O)N[C@@H](CCOCCCCc3ccc4c(n3)NCCC4)C(=O)O)CC2)n1 [Compound 18]
≤ 6.30

Find the recorded pIC50 belonging to COc1nccnc1C1(C(=O)N[C@@H](CCOCCCCc2ccc3c(n2)NCCC3)C(=O)O)CC1 [Compound 50] and report it.
≤ 6.30

What does the record list as pIC50 for O=C(N[C@@H](CCOCCCCc1ccc2c(n1)NCCC2)C(=O)O)c1ccn(-c2ccccc2)n1 [Compound 97] ?
6.30 to 6.60

What measured pIC50 goes with Cc1ncc(Cl)c(C2(C(=O)N[C@@H](CCOCCCCc3ccc4c(n3)NCCC4)C(=O)O)CC2)n1 [Compound 73] ?
≤ 6.30

Need pIC50 of Cn1cnc(Cl)c1C1(C(=O)N[C@@H](CCOCCCCc2ccc3c(n2)NCCC3)C(=O)O)CC1 [Compound 80] , thanks.
≤ 6.30

Look up pIC50: COc1ccc(F)c(F)c1C(C)(C)C(=O)N[C@@H](CCOCCCCc1ccc2c(n1)NCCC2)C(=O)O [Compound 4]
≤ 6.30

Tell me the measured pIC50 of O=C(O)[C@H](CCOCCCCc1ccc2c(n1)NCCC2)NC(=O)C1(c2cccc(C(F)(F)F)c2)CCOCC1 [Compound 86] , please.
< 6.30

Which pIC50 value is on record for O=C(O)[C@H](CCOCCCCc1ccc2c(n1)NCCC2)NC(=O)C1(c2c(Cl)cncc2Cl)CC1 [Compound 24] ?
6.82 to 7.30

Reported pIC50 for CC(C)(C(=O)N[C@@H](CCOCCCCc1ccc2c(n1)NCCC2)C(=O)O)c1cc(F)cnc1Cl [Compound 23] : what is it?
6.30 to 6.60
